target: human CYP11B2 (Homo sapiens, UniProt P19099); experiment: In vitro activity assay of monoclonal cells overexpressing human CYP11B2; settings: G402 cells overexpressing human CYP11B2; 1 µM 11-deoxycorticosterone, 16 hours; aldosterone by LC-MS/MS
Sequence (P19099 25-503): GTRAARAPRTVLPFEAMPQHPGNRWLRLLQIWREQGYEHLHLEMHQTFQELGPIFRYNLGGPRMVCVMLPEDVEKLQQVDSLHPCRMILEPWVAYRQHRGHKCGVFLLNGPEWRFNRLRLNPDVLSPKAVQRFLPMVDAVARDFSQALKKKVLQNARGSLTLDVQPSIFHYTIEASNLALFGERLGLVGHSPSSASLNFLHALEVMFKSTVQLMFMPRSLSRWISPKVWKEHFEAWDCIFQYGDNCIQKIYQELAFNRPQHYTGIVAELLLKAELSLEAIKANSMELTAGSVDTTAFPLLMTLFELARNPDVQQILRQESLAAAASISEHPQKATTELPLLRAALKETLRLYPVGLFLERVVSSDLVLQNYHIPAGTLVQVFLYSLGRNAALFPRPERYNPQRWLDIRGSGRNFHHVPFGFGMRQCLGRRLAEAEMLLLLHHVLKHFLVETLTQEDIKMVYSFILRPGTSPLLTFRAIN
The entries below are paired with their reported pIC50.
# reply with the number alone; pIC50 is -log10 of concentration in mol/L

Recorded pIC50, per entry:
{"compound": "CCC(=O)NC1CCCc2c(-c3cc4ccc(=O)n(C)c4cc3F)cncc21 (single isomer, unassigned) [Compound 019]", "pIC50": 7.76}
{"compound": "CCC(=O)NC1CCCc2c(-c3ccc4c(c3)C3CC3C(=O)N4C)cncc21 (single isomer, unassigned) [Compound 025]", "pIC50": 7.18}
{"compound": "CCC(=O)NC1CCOc2c(-c3ccc4c(ccc(=O)n4C)c3)cncc21 (single isomer, unassigned) [Compound 044]", "pIC50": 7.48}
{"compound": "CCC(=O)NC1CCOc2c(-c3cc4ccc(=O)n(C)c4s3)cncc21 (single isomer, unassigned) [Compound 045]", "pIC50": 7.37}
{"compound": "CCS(=O)(=O)N1CC(Oc2cncc(-c3ccc4c(c3)OCC(=O)N4C)c2)C1 [Compound 016]", "pIC50": 7.20}
{"compound": "CCC(=NOC)NC1CCCc2c(-c3ccc4c(c3)CCC(=O)N4C)cncc21 (single isomer, unassigned) [Compound 005]", "pIC50": 7.71}

# input for lookup
query: // returns reported pIC50 for input CCC(=O)NC1CCCc2c(-c3cc(F)c4c(ccc(=O)n4C)c3)cncc21 (single isomer, unassigned) [Compound 018]
result: 7.68
